// reported combination Emax per item
test system: SK-HEP-1 (Hepatocellular Carcinoma); experiment: combination Emax (second highest fraction inhibited in the dose matrix, 72 h); higher = more inhibition; extreme values may be limits of the assay
Give the figure by itself; no unit, no explanation.

Completed entries (count: 5):
molecule	combination Emax
CN(CCO)CC[C@H](CSc1ccccc1)Nc1ccc(S(=O)(=O)NC(=O)c2ccc(N3CCC([C@@H](O)c4ccccc4-c4ccc(Cl)cc4)CC3)cc2)cc1S(=O)(=O)C(F)(F)F [AZD4320] + Cn1cnc2c(F)c(Nc3ccc(Br)cc3Cl)c(C(=O)NOCCO)cc21 [Selumetinib] (first compound max 1 µM, 7x7, partner max 3 µM)	0.603
CC(=O)c1c(C)c2cnc(Nc3ccc(N4CCNCC4)cn3)nc2n(C2CCCC2)c1=O [Palbociclib] + Cc1c2c(nn1C)CSCc1cc(n(C)n1)CSc1cc(c3ccccc3c1)OCCCc1c(C(=O)O)n(C)c3c-2c(Cl)ccc13 [AZD5991] (first compound max 10 µM, 7x7, partner max 1 µM)	0.848
CN(CCO)CC[C@H](CSc1ccccc1)Nc1ccc(S(=O)(=O)NC(=O)c2ccc(N3CCC([C@@H](O)c4ccccc4-c4ccc(Cl)cc4)CC3)cc2)cc1S(=O)(=O)C(F)(F)F [AZD4320] + CN(C)CCCOc1ccc(-c2ccc3ncc4c(c3c2)n(C2CCOCC2)c(=O)n4C)cn1 [AZD0156] (first compound max 1 µM, 7x7, partner max 1 µM)	0.325
CC1(C)CCC(CN2CCN(c3ccc(C(=O)NS(=O)(=O)c4ccc(NCC5CCOCC5)c([N+](=O)[O-])c4)c(Oc4cnc5[nH]ccc5c4)c3)CC2)=C(c2ccc(Cl)cc2)C1 [Venetoclax] + C[C@@H]1COCCN1C2=NC(=NC(=C2)C3(CC3)[S@](=N)(=O)C)C4=C5C=CNC5=NC=C4 [AZD6738] (first compound max 1 µM, 7x7, partner max 10 µM)	0.28
COc1nnc2ccc(N3CCC(c4ccc(OCCN5CCN(C)C(=O)[C@H]5C)cc4)CC3)nn12 [AZD5153] + CCN(CCO)CCCOc1ccc2c(Nc3cc(CC(=O)Nc4cccc(F)c4)[nH]n3)ncnc2c1 [AZD2811] (first compound max 1 µM, 7x7, partner max 1 µM)	0.41

(Q) Find combination Emax (SK-HEP-1 (Hepatocellular Carcinoma)) for the entry CC1(C)CCC(CN2CCN(c3ccc(C(=O)NS(=O)(=O)c4ccc(NCC5CCOCC5)c([N+](=O)[O-])c4)c(Oc4cnc5[nH]ccc5c4)c3)CC2)=C(c2ccc(Cl)cc2)C1 [Venetoclax] + CN(C)CCCOc1ccc(-c2ccc3ncc4c(c3c2)n(C2CCOCC2)c(=O)n4C)cn1 [AZD0156] (first compound max 1 µM, 7x7, partner max 1 µM)
(A) 0.158

(Q) Next up: CN(CCO)CC[C@H](CSc1ccccc1)Nc1ccc(S(=O)(=O)NC(=O)c2ccc(N3CCC([C@@H](O)c4ccccc4-c4ccc(Cl)cc4)CC3)cc2)cc1S(=O)(=O)C(F)(F)F [AZD4320] + CS(=O)(=O)CCNCc1ccc(-c2ccc3ncnc(Nc4ccc(OCc5cccc(F)c5)c(Cl)c4)c3c2)o1 [Lapatinib] (first compound max 1 µM, 7x7, partner max 10 µM)
(A) 0.909

###

test system: CA46 (Burkitt's Lymphoma); assay: combination Emax (second highest fraction inhibited in the dose matrix, 72 h); higher = more inhibition; extreme values may be limits of the assay
readoutKind: combination Emax

molecule	combination Emax
CC(=O)c1c(C)c2cnc(Nc3ccc(N4CCNCC4)cn3)nc2n(C2CCCC2)c1=O [Palbociclib] + CN(CC[C@H](CSC1=CC=CC=C1)NC2=C(C=C(C=C2)S(=O)(=O)NC(=O)C3=CC=C(C=C3)N4CCC(CC4)[C@H](C5=CC=CC=C5C6=CC=C(C=C6)Cl)O)S(=O)(=O)C(F)(F)F)CCO [AZD4320] (first compound max 10 µM, 7x7, partner max 1 µM)	0.336

(Q) Find combination Emax (CA46 (Burkitt's Lymphoma)) for the entry CN(CCO)CC[C@H](CSc1ccccc1)Nc1ccc(S(=O)(=O)NC(=O)c2ccc(N3CCC([C@@H](O)c4ccccc4-c4ccc(Cl)cc4)CC3)cc2)cc1S(=O)(=O)C(F)(F)F [AZD4320] + CCN(CCO)CCCOc1ccc2c(Nc3cc(CC(=O)Nc4cccc(F)c4)[nH]n3)ncnc2c1 [AZD2811] (first compound max 1 µM, 7x7, partner max 1 µM)
(A) 0.356

(Q) Next up: CN(C)CCCOc1ccc(-c2ccc3ncc4c(c3c2)n(C2CCOCC2)c(=O)n4C)cn1 [AZD0156] + C[C@@H]1COCCN1C2=NC(=NC(=C2)C3(CC3)[S@](=N)(=O)C)C4=C5C=CNC5=NC=C4 [AZD6738] (first compound max 1 µM, 7x7, partner max 10 µM)
(A) 0.746

Where do the numbers come from? From the supplement of paper PMC11061612.
